- assay-details: Approximate kinetic solubility (visual, solvent aliquot addition)
- Assay type: physicochemical
- condition-parameters: toluene, 23 °C, organic solvent or mixture, thermodynamic from solid; read-out: Solubility (mg/mL)at RT (23° C.)
experimental-endpoint: solubility

Entry O=C(NOC[C@H](O)CO)c1ccc(F)c(F)c1Nc1ccc(I)cc1F — recorded solubility = < 6 mg/mL

* * *

- assay-details: Approximate kinetic solubility (visual, solvent aliquot addition)
- Format: physicochemical
- condition-parameters: thermodynamic from solid; Water; heated to 40° C. for 1 hour; read-out: Solubility (mg/mL) at 40° C.
experimental-endpoint: solubility at 1 h

Entry O=C(NOC[C@H](O)CO)c1ccc(F)c(F)c1Nc1ccc(I)cc1F — recorded solubility at 1 h = < 6 mg/mL
